- Test system: T47D cells
- TEST: Cell-based assay: anti-proliferative activity, Cell Counting Kit-8, 72 hours (T47D)
- SETUP_CONDITIONS: Homo sapiens, T47D, 72 h
Where a name gives a salt, the structure may show the parent alone.
One threshold, 0.6 µM, splits the recorded IC50 values: lower ones are Yes, equal or higher ones are No.

Q: Given the entry "CCN(C)C[C@H]1CC[C@H](Nc2c(C(C)=O)cnc3ccc(-c4cc(Cl)c(O)c(Cl)c4)cc23)CC1" , would its reported IC50 be below 0.6 µM?
A: Yes

Q: Regarding CC(=O)c1cnc2cc(F)c(-c3cc(F)c(O)c(Cl)c3)cc2c1N[C@H]1CC[C@H](CN2CCCC2)CC1 [Example 925, hydrochloride] , kindly confirm whether its IC50 is beneath 0.6 µM.
A: Yes

Q: Dear reviewer, please state whether "COc1cc(-c2ccc3ncc(C(=O)C(C)C)c(N[C@H]4CC[C@H](CN(C)C)CC4)c3c2)cc(Cl)c1O" has IC50 strictly beneath 0.6 µM.
A: No

Q: Does the reported IC50 of the following compound sit strictly below 0.6 µM? CC(=O)c1cnc2ccc(-c3cc(Cl)c(O)c(Cl)c3)cc2c1Nc1ccc(N2CCC(N(C)C)C2)nc1 (stereo not drawn)
A: Yes

Q: Find out if reported IC50 for "CC(=O)c1cnc2ccc(-c3cc(Cl)c(O)c(Cl)c3)cc2c1N[C@H]1CC[C@H](CCN(C)C)CC1" is less than 0.6 µM
A: Yes

Q: Hello, I'm reviewing records and need to know if IC50 of COc1cc(-c2ccc3ncc(C(C)=O)c(Nc4ccc(N5CCC(N)C5)nc4)c3c2)cc(Cl)c1O (stereo not drawn) is below 0.6 µM. Could you check?
A: Yes

Q: Input CC(=O)c1cnc2cc(F)c(-c3cc(F)c(O)c(Cl)c3)cc2c1N[C@H]1CC[C@H](CN(C)C)CC1 [Example 904, hydrochloride] ; condition: IC50 strictly below 0.6 µM. Does it hold?
A: Yes

Q: Answer whether the compound O=C(c1cnc2ccc(-c3cc(F)c(O)c(Cl)c3)cc2c1Nc1ccc(NC2CCNC2)nc1)C1CC1 (stereo not drawn) has IC50 strictly less than 0.6 µM
A: Yes

Q: Given "COc1cc(-c2ccc3ncc(C(=O)C4CC4)c(-c4cnc(N5CCN(C)CC5)nc4)c3c2)cc(Cl)c1O" , is recorded IC50 strictly lower than 0.6 µM?
A: Yes

Q: Lab note: confirm whether the reported IC50 for this compound is below 0.6 µM, equality not counting. compound: "O=C(c1cnc2ccc(-c3cc(Cl)c(O)c(Cl)c3)cc2c1-c1ccc(OCCN2CCCC2)cc1)C1CC1"
A: No

Q: API: query returns whether the compound falls strictly under 0.6 µM in IC50. Query: CC(N)C(=O)N[C@H]1CC[C@H](Nc2c(C(=O)C(C)(C)C)cnc3ccc(-c4cc(F)c(O)c(Cl)c4)cc23)CC1 (stereo partly drawn) [Example 932, hydrochloride]
A: No

Q: Please state whether IC50 is below 0.6 µM for "CC(=O)c1cnc2ccc(-c3cc(F)c(O)c(Cl)c3)cc2c1N[C@@H]1CC[C@@H](CN(C)C)C1"
A: Yes

Q: IC50 under 0.6 µM? Item: "COc1cc(-c2ccc3ncc(C(C)=O)c(N4CCN(C(=O)CN(C)C)CC4)c3c2)cc(Cl)c1O"
A: No

Q: Problem: For the compound COc1cc(-c2ccc3ncc(C(C)=O)c(N[C@H]4CC[C@H](CN5CCC(O)C5)CC4)c3c2)cc(Cl)c1O (stereo partly drawn) , is IC50 under 0.6 µM?
A: Yes

Q: Check if IC50 falls below 0.6 µM for CNC1CCCN(c2ccc(Nc3c(C(=O)C4CC4)cnc4ccc(-c5cc(Cl)c(O)c(Cl)c5)cc34)cn2)C1 (stereo not drawn) [Example 807, trihydrochloride] .
A: Yes

Q: For this compound, is IC50 lower than 0.6 µM? "N[C@@H]1CCCN(c2ccc(Nc3c(C(=O)C4CC4)cnc4ccc(-c5cc(F)c(O)c(Cl)c5)cc34)cn2)C1"
A: Yes

Q: Lab log: compare recorded IC50 with 0.6 µM; is it strictly lower for COC1CCN(C2CCC(Nc3c(C(=O)C4CC4)cnc4ccc(-c5cc(F)c(O)c(Cl)c5)cc34)CC2)C1 (stereo not drawn) ?
A: Yes

Q: Does "COc1cc(-c2ccc3ncc(C(=O)C4CC4)c(N[C@H]4CC[C@H](CN5CCN(C)CC5)CC4)c3c2)cc(Cl)c1O" have IC50 strictly under 0.6 µM?
A: No

Q: Regarding "O=C(c1cnc2ccc(-c3cc(F)c(O)c(Cl)c3)cc2c1N[C@H]1C[C@H]2CC[C@@H](C1)N2)C1CC1" , kindly confirm whether its IC50 is beneath 0.6 µM.
A: Yes

Q: Find out if reported IC50 for "O=C(c1cnc2ccc(-c3cc(F)c(O)c(Cl)c3)cc2c1Nc1ccc(Cn2ccnc2)cc1)C1CC1" is less than 0.6 µM
A: No

Q: State whether 0.6 µM exceeds IC50 recorded for O=C(c1cnc2ccc(-c3cc(Cl)c(O)c(Cl)c3)cc2c1NC1CCC(N2CC[C@@H](F)C2)CC1)C1CC1 (stereo partly drawn) .
A: Yes

Q: Hello, is IC50 of the following compound strictly smaller than 0.6 µM? CN1CCCC(n2cc(Nc3c(C(=O)C4CC4)cnc4ccc(-c5cc(F)c(O)c(Cl)c5)cc34)cn2)C1 (stereo not drawn)
A: Yes

Q: Lab note: confirm whether the reported IC50 for this compound is below 0.6 µM, equality not counting. compound: CC(=O)c1cnc2ccc(-c3ccc4[nH]ncc4c3)cc2c1N[C@H]1CC[C@H](CN(C)C)CC1 [Example 910, hydrochloride]
A: No

Q: Determine whether this compound shows IC50 lower than 0.6 µM (ties excluded): "CN(C)Cc1ccc(Nc2c(C(=O)C3CC3)cnc3ccc(-c4cc(Cl)c(O)c(Cl)c4)cc23)nc1"
A: No

----------
- Test system: A549 cells
- TEST: Cell-based assay: anti-proliferative activity, Cell Counting Kit-8, 72 hours (A549)
- SETUP_CONDITIONS: MELK-expressing, Cell Counting Kit-8 at 72 hours
MEASUREMENT_TYPE: IC50 (µM)
Answer format: numeric, µM implied, no suffix.

Q: Fill in reported IC50 for this entry: CCN(CC)C1CCC(Nc2c(C(=O)C3CC3)cnc3ccc(-c4cc(Cl)c(O)c(OC)c4)cc23)CC1 (stereo not shown)
A: 0.42

----------
- Tested on: HT-1197 cells
- TEST: Cell-based assay: anti-proliferative activity, Cell Counting Kit-8, 72 hours (HT-1197, negative control without MELK expression)
- SETUP_CONDITIONS: Homo sapiens, HT1197, 72 h, HT1197 cells (negative control, no MELK expression), 72 hours
Structures can show the parent of a compound that is named as a salt.
Kindly state IC50 for each of the entries shown.
Number in µM, nothing else.

Q: Using known records, supply IC50 for CC(=O)c1cnc2ccc(-c3cc(F)c(O)c(Cl)c3)cc2c1NC1CCC(C(=O)N2CCN(C)CC2)CC1 (stereo not shown) [Example 849, hydrochloride]
A: 4.5

Q: Entry "O=C(c1cnc2ccc(-c3cc(Cl)c(O)c(Cl)c3)cc2c1NC1CCNCC1)C1CC1" needs its IC50 filled in; supply it.
A: 2.4

Q: Report IC50, nothing else, for this compound: CC(=O)c1cnc2ccc(-c3cc(Cl)c(O)c(Cl)c3)cc2c1N[C@H]1CCC[C@@H](CN2CCN(C)CC2)C1 [Example 835, hydrochloride]
A: 2.7

Q: Supply reported IC50 belonging to this compound: "CN1CCN(Cc2ccc(Nc3c(C(=O)C4CC4)cnc4ccc(-c5cc(Cl)c(O)c(Cl)c5)cc34)cn2)CC1"
A: 14

----------
- System: T47D cells
- TEST: Cell-based assay: anti-proliferative activity, Cell Counting Kit-8, 72 hours (T47D)
- SETUP_CONDITIONS: Homo sapiens, T47D, 72 h
Counter-ions that a name gives are not always drawn.
Task for the reader: assign each of the following compounds its reported IC50.
Kindly provide the numeric value in µM only, without the unit symbol.

Q: State its IC50 for this compound: COc1cc(-c2ccc3ncc(C(=O)C4CC4)c(Nc4cnc(N5CCC(N)C5)nc4)c3c2)cc(Cl)c1O (stereo not shown)
A: 0.052

Q: Return value of IC50 for input CNC1CCCN(c2ccc(Nc3c(C(C)=O)cnc4ccc(-c5cc(Cl)c(O)c(Cl)c5)cc34)cn2)C1 (stereo not shown) [Example 806, trihydrochloride] , no commentary.
A: 0.027

Q: Give IC50 for COc1cc(-c2ccc3ncc(C(=O)C4CC4)c(Nc4ccc(N5CCC(N)C5)nc4)c3c2)cc(Cl)c1O (stereo not shown)
A: 0.057

Q: For the compound CS(=O)(=O)c1cnc2ccc(-c3cc(Cl)c(O)c(Cl)c3)cc2c1N[C@H]1CC[C@H](CN2CCCC2)CC1 [Example 890, hydrochloride] , report IC50.
A: 1.3
